Each recorded value in this set is attributed to paper PMC10786891.

pKd overview
- TARGET_UNDER_TEST: T1, EsCas13d, nuclease-dead (Eubacterium siraeum, UniProt B0MS50, R295A;H300A;R849A;H854A)
- T1 sequence: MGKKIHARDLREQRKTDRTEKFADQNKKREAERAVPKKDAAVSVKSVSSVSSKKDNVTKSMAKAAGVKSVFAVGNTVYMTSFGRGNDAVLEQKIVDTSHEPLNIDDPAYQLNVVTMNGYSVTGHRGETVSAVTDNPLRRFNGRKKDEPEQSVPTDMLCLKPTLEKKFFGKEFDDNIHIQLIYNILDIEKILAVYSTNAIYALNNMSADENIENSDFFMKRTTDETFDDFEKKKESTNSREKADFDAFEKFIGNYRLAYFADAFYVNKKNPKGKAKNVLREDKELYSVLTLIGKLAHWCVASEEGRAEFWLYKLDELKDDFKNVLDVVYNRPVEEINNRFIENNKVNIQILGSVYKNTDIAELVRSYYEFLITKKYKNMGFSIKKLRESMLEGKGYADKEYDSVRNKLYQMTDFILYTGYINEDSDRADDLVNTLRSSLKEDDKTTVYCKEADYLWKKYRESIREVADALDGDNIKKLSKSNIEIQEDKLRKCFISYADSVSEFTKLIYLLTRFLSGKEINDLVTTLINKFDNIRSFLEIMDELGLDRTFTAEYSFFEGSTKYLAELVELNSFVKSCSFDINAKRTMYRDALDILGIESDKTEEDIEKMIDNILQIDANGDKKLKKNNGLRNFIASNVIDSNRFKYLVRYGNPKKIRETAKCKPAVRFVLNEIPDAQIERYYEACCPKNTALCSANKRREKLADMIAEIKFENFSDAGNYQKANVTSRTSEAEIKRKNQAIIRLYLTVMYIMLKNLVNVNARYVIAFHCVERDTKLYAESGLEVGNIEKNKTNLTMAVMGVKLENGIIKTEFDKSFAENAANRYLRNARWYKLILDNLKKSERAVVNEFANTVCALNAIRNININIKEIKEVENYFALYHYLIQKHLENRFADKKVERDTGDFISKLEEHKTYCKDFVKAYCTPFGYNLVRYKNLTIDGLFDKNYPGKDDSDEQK
- PROTOCOL_DESCRIPTION: crRNA (strand 1, pre-loaded); Mg2+; 40 mM Tris-HCl pH 7.5, 150 mM NaCl, 6 mM MgCl2, 1 mM DTT, 0.1% Tween-20, 0.2 mg/ml BSA; 25 C; 10 min per concentration, then washed
- CONDITION: tags: His6-TwinStrep-SUMO cleaved; N-terminal SNAP kept (SNAP-Surface 488); label: 3' end held by stalled T7 RNA polymerase
pKd: −log10 of the molar value.
MEASURE: pKd

>>> meas_value("target 1 del9,del20 (mixed) RNA 1: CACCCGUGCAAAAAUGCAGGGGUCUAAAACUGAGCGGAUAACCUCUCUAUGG RNA 2: GGGAAUGGAUCCACAUCUACGAAUUCGUACCUAGAGAGGUUUCCGCUCACCGAGAUCGGAAGAGCACACGU")
7.28
>>> meas_value("target 2 MT 5'PFS AUG 3'PFS UCA (mixed) RNA 1: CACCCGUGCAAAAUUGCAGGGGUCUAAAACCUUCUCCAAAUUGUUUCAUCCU RNA 2: GGGAAUGGAUCCACAUCUACGAAUUCAUGAGGAUGAAACAAUUUGGAGAAGUCAAGAUCGGAAGAGCACACGU")
7.82
>>> meas_value("target 2 MT 5'PFS CGC 3'PFS CAU (mixed) RNA 1: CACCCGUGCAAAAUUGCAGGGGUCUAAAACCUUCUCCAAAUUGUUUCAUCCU RNA 2: GGGAAUGGAUCCACAUCUACGAAUUCCGCAGGAUGAAACAAUUUGGAGAAGCAUAGAUCGGAAGAGCACACGU")
8.35
>>> meas_value("target 3 insU 3' of 22,insG 3' of 2 (mixed) RNA 1: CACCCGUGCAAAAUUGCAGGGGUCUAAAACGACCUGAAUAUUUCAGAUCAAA RNA 2: GGGAAUGGAUCCACAUCUACGAAUUCGUUUUUUGAUCUGAAAUAUUCAGGUGCUGCAGAUCGGAAGAGCACACGU")
7.49
>>> meas_value("target 3 insG 3' of 8,insA 3' of 7 (mixed) RNA 1: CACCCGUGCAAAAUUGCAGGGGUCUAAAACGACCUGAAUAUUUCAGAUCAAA RNA 2: GGGAAUGGAUCCACAUCUACGAAUUCGUUUUUGAUCUGAAAUAUGUACAGGUCUGCAGAUCGGAAGAGCACACGU")
7.38
>>> meas_value("target 1 MT 5'PFS CUG 3'PFS CUC (mixed) RNA 1: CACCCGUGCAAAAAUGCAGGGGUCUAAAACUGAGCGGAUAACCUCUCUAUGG RNA 2: GGGAAUGGAUCCACAUCUACGAAUUCCUGCCAUAGAGAGGUUAUCCGCUCACUCAGAUCGGAAGAGCACACGU")
8.38
>>> meas_value("target 1 MT 5'PFS UAU 3'PFS AUA (mixed) RNA 1: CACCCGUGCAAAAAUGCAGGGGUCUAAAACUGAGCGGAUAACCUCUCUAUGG RNA 2: GGGAAUGGAUCCACAUCUACGAAUUCUAUCCAUAGAGAGGUUAUCCGCUCAAUAAGAUCGGAAGAGCACACGU")
7.37
>>> meas_value("target 3 insA 3' of 7,insA 3' of 3 (mixed) RNA 1: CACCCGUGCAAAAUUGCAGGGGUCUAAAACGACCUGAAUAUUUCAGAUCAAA RNA 2: GGGAAUGGAUCCACAUCUACGAAUUCGUUUUUGAUCUGAAAUAUUACAGGAUCUGCAGAUCGGAAGAGCACACGU")
7.43
>>> meas_value("target 1 C2G,G17A (mixed) RNA 1: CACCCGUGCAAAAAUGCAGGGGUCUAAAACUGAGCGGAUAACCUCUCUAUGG RNA 2: GGGAAUGGAUCCACAUCUACGAAUUCGUACCAUAAAGAGGUUAUCCGCUGACCGAGAUCGGAAGAGCACACGU")
7.60
>>> meas_value("target 2 MT 5'PFS AAG 3'PFS AGA (mixed) RNA 1: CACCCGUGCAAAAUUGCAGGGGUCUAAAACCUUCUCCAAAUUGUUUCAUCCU RNA 2: GGGAAUGGAUCCACAUCUACGAAUUCAAGAGGAUGAAACAAUUUGGAGAAGAGAAGAUCGGAAGAGCACACGU")
8.60
>>> meas_value("target 2 MT 5'PFS AAC 3'PFS CCG (mixed) RNA 1: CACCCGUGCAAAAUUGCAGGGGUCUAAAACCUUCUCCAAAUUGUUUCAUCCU RNA 2: GGGAAUGGAUCCACAUCUACGAAUUCAACAGGAUGAAACAAUUUGGAGAAGCCGAGAUCGGAAGAGCACACGU")
8.23
>>> meas_value("target 2 MT 5'PFS UCA 3'PFS CCG (mixed) RNA 1: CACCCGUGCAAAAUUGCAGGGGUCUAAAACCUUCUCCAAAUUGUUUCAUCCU RNA 2: GGGAAUGGAUCCACAUCUACGAAUUCUCAAGGAUGAAACAAUUUGGAGAAGCCGAGAUCGGAAGAGCACACGU")
8.30
>>> meas_value("target 1 del7,del16 (mixed) RNA 1: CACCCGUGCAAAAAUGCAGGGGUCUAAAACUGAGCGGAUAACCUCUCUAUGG RNA 2: GGGAAUGGAUCCACAUCUACGAAUUCGUACCAUAGGAGGUUAUCGCUCACCGAGAUCGGAAGAGCACACGU")
7.35
